All figures here come from patent US11319324B2.

- target: human P2X2/3 receptors (Homo sapiens, UniProt P56373+Q9UBL9)
- Construct: expressed in transfected cells; host or cells: human astrocytoma 1321N1 (1312N1 [sic])
- Sequence (P56373 whole entry): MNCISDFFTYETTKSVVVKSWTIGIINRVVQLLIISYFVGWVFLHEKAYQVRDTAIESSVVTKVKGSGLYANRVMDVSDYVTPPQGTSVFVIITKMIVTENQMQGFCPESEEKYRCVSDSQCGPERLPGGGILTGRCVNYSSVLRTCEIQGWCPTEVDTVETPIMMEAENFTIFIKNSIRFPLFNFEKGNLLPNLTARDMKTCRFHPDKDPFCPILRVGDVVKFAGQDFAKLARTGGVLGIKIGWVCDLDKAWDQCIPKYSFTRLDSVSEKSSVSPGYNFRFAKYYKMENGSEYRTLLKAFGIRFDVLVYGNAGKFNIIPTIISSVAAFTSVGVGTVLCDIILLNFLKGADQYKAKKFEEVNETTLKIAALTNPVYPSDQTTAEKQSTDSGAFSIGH
- Sequence (Q9UBL9 whole entry): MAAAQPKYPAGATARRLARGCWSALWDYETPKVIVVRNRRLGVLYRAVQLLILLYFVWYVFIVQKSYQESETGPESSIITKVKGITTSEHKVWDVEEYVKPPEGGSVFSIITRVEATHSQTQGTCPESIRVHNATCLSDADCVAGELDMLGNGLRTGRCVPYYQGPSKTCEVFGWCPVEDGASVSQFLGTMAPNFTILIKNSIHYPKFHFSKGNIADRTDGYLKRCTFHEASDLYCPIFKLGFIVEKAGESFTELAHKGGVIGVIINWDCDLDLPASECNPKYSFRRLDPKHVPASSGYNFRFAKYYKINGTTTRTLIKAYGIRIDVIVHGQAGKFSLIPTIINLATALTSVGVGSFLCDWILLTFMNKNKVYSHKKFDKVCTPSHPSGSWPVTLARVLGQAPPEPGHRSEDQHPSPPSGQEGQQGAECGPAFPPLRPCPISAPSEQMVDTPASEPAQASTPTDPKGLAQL
- assay_protocol: Intracellular calcium measurement, antagonist activity at human P2X2/3 receptors (hP2X23 1321N1), Fluo8
- Assay type: cell-based
- experimental_parameters: ratio of column 4) hP2X2/3 to column 3) hP2X3, 1321N1
value_type: hP2X23/hP2X3* Selectivity (1321N1)

Sample records with hP2X23/hP2X3* Selectivity (1321N1):
INSERT INTO measurements (compound, data_value) VALUES
  ('CC(C)N1Cc2c(n(CC(=O)Nc3ccc(F)cn3)c3cc(NC4CCCC4)nn3c2=O)C1=O', 250),
  ('COC[C@H](C)N1Cc2c(n(CC(=O)Nc3ccc(F)cn3)c3cc(C(=O)N(C)CC4CC4)nn3c2=O)C1=O', 399),
  ('CCc1cc2n(CC(=O)Nc3ccc(F)cn3)c3c(c(=O)n2n1)CN(CC1CCN(C(=O)OC(C)(C)C)CC1)C3=O', 49),
  ('COC[C@H](C)N1Cc2c(n(CC(=O)Nc3ccc(F)cn3)c3cc(C(=O)NCC(F)F)nn3c2=O)C1=O', 291),
  ('CC(C)(C)c1cc2n(CC(=O)Nc3ccc(F)cn3)c3c(c(=O)n2n1)CN(C1CCCC1)C3=O', 54);

P. CC(C)N1Cc2c(n(CC(=O)Nc3ccc(F)cn3)c3cc(C#N)nn3c2=O)C1=O
Q. CC(C)N1Cc2c(n(CC(=O)Nc3ccc(F)cn3)c3cc(C4CCN(C(=O)C(F)F)CC4)nn3c2=O)C1=O
**Query** Sort P and Q by hP2X23/hP2X3* Selectivity (1321N1) descending and give the first. Kindly give the label for the entry you pick.
**Result** Q

###

- target: human P2X3 receptor (Homo sapiens)
- Sequence (P56373 whole entry): as the sequence (P56373 whole entry) above
- assay_protocol: Intracellular calcium measurement, antagonist activity at human P2X3 receptors (hP2X3 1321N1), Fluo8
- Type: cell-based
- Design: expressed in transfected cells; host or cells: human astrocytoma 1321N1 (1312N1 [sic])
- experimental_parameters: column 3); 1321N1 cells, human P2X3, Fluo8, agonist ATP at EC50
- Experimental: 3) And 4) Intracellular Calcium Measurement to Compare Antagonist Activity at Human P2X3 Receptors (hP2X3 1321N1) and at Human P2X2/3 Receptors (hP2X23 1321N1) The comparison of antagonistic activity at the P2X3 versus the P2X2/3 receptor of the compounds of the invention were performed by use of recombinant cell lines. […] The cytoplasmatic calcium transient is detected via the calcium sensitive dye Fluo8. The strength of Fluo8 fluorescence signal corresponds to the level of receptor activation. […]
value_type: IC50 (nM)

INSERT INTO results (compound, data_value) VALUES
  ('COC[C@H](C)N1Cc2c(n(CC(=O)Nc3ccc(F)cn3)c3cc(C(=O)N(C)C)nn3c2=O)C1=O', 81),
  ('CC(C)N1Cc2c(n(CC(=O)Nc3ccc(F)cn3)c3cc(NCCO)nn3c2=O)C1=O', 91);

1. CCc1cc2n(CC(=O)Nc3ccc(F)cn3)c3c(c(=O)n2n1)CN(CC(=O)NC(C)C)C3=O
2. COC[C@H](C)N1Cc2c(n(CC(=O)Nc3ccc(F)cn3)c3cc(C(=O)N4CCOCC4)nn3c2=O)C1=O
**Query** Sort 1 and 2 by IC50 descending and give the first. Kindly give the label for the entry you pick.
**Result** 1
(1: 120 nM, 2: 27 nM)
